Test target: α4β2* nAChR (Rattus norvegicus, UniProt P09483+P12390)
Construct: Horizontal brain slices, 10 µm thick from male Sprague Dawley rats; from tissue; host or cells: rat brain slices (male Sprague Dawley), several brain regions
Assay summary: [3H]cytisine competition binding on rat brain slices (autoradiography)
Measurement conditions: rat brain slices, Anterior Cingulate; read-out: Inhibition constants (IC50), [3H]Cytisine, α4β2* nAChRs
Readout kind: IC50 (nM)
Report only the number, with the unit nM understood.

Requested read-out IC50, target or system α4β2* nAChR (Rattus norvegicus, UniProt P09483+P12390), entry c1ncc(N2CCN3CCC2CC3)cc1OCC1CCN1 (stereo not shown) [KS7]
49.5

* * *

Test target: α7 nAChR (Rattus norvegicus)
Assay summary: biochemical
Format: binding
Measurement conditions: rat brain slices, Inferior Colliculus; read-out: Inhibition constants (IC50), [125I]α-BuTX, α7* nAChRs
Readout kind: pIC50
# pIC50: negative log10 of molar concentration; output just the value

Fill in the blank: the reported pIC50 of c1ncc(N2CCN3CCC2CC3)cc1OCC1CCN1 (stereo not shown) [KS7] is ____.
4.33

* * *

Test target: α7 nAChR (Rattus norvegicus, UniProt Q05941)
Assay summary: biochemical
Format: binding
Measurement conditions: frontal cortex value taken from Table 1; read-out: Binding affinity α7*
Readout kind: IC50 (µM)
Give the value in µM but do not write µM after it.

Requested field: IC50. Item: c1ncc(N2CCN3CCC2CC3)cc1OCC1CCN1 (stereo not shown)
9.9

* * *

Test target: α7 nAChR (Rattus norvegicus, UniProt Q05941)
Assay summary: biochemical
Type: binding
Measurement conditions: rat brain slices, Frontal Cortex; read-out: Inhibition constants (IC50), [125I]α-BuTX, α7* nAChRs
Readout kind: pIC50
A value of pIC50 is the negative decimal logarithm of a concentration given in moles per litre.

Please state recorded pIC50 (tested on α7 nAChR (Rattus norvegicus, UniProt Q05941)) of c1ncc(N2CCN3CCC2CC3)cc1OCC1CCN1 (stereo not shown)
5.00

* * *

Test target: α7 nAChR (Rattus norvegicus)
Assay summary: biochemical
Format: binding
Measurement conditions: rat brain slices, Hippocampus; read-out: Inhibition constants (IC50), [125I]α-BuTX, α7* nAChRs
Readout kind: pIC50
Worth noting: pIC50 values are minus log10 of concentrations stated in mol/L.

What reported pIC50 corresponds to c1ncc(N2CCN3CCC2CC3)cc1OCC1CCN1 (stereo not shown) [KS7] on α7 nAChR (Rattus norvegicus)?
4.48

* * *

Test target: α4β2* nAChR (Rattus norvegicus, UniProt P09483+P12390)
Construct: Horizontal brain slices, 10 µm thick from male Sprague Dawley rats; from tissue; host or cells: rat brain slices (male Sprague Dawley), several brain regions
Assay summary: [3H]cytisine competition binding on rat brain slices (autoradiography)
Measurement conditions: frontal cortex value taken from Table 1; read-out: Binding affinity α4β2*
Readout kind: IC50 (nM)
# number only, unit nM dropped from output

# get_value(readout= IC50, system= α4β2* nAChR (Rattus norvegicus, UniProt P09483+P12390)) for c1ncc(N2CCN3CCC2CC3)cc1OCC1CCN1 (stereo not shown)
109

* * *

Test target: α4β2* nAChR (Rattus norvegicus, UniProt P09483+P12390)
Construct: Horizontal brain slices, 10 µm thick from male Sprague Dawley rats; from tissue; host or cells: rat brain slices (male Sprague Dawley), several brain regions
Assay summary: [3H]cytisine competition binding on rat brain slices (autoradiography)
Measurement conditions: rat brain slices, Striatum; read-out: Inhibition constants (IC50), [3H]Cytisine, α4β2* nAChRs
Readout kind: IC50 (nM)
Answer format: numeric, nM implied, no suffix.

Provide the documented IC50 with α4β2* nAChR (Rattus norvegicus, UniProt P09483+P12390) as the system for c1ncc(N2CCN3CCC2CC3)cc1OCC1CCN1 (stereo not shown)
86.9
